test: Pharmacokinetic food-effect study, single 20 mg/kg dose, healthy subjects (Example 17); conditions: human, in vivo, po, 20 mg/kg, AUC0-3, cannabidiol, single 20 mg/kg oral, fed; mean ± SD
Measurement Name: AUC(0-t) (ng·h/mL)

>>> print(df.to_string())
                  compound_structure_string  experimental_value
0  C=C(C)[C@@H]1CCC(C)=C[C@H]1c1c(O)cc(CCCCC)cc1O                 535

###

assay: Pharmacokinetic food-effect study, single 20 mg/kg dose, healthy subjects (Example 17); settings: human, in vivo, po, 20 mg/kg, ln(AUC0-inf) Geometric Mean, cannabidiol, 20 mg/kg oral, Fasted; least squares geometric mean, period removed from model
Measurement Name: AUC(0-inf) (ng·h/mL)

                  compound_structure_string  experimental_value
0  C=C(C)[C@@H]1CCC(C)=C[C@H]1c1c(O)cc(CCCCC)cc1O                 326

###

assay: clinical; conditions: human, in vivo, po, 20 mg/kg, t1/2, cannabidiol, single 20 mg/kg oral dose of cannabidiol solution, fasted; mean
Measurement Name: half-life (h)

>>> print(df.to_string())
                  compound_structure_string  experimental_value
0  C=C(C)[C@@H]1CCC(C)=C[C@H]1c1c(O)cc(CCCCC)cc1O                27.9

###

test: Pharmacokinetic food-effect study, single 20 mg/kg dose, healthy subjects (Example 17); conditions: human, in vivo, po, 20 mg/kg, AUC0-0.75, cannabidiol, single 20 mg/kg oral, fasted; mean ± SD
Measurement Name: AUC(0-t) (ng·h/mL)

>>> df
                  compound_structure_string  measurement_name  measure_unit  experimental_value
0  C=C(C)[C@@H]1CCC(C)=C[C@H]1c1c(O)cc(CCCCC)cc1O          AUC(0-t)       ng·h/mL                1.25

###

assay: Pharmacokinetic food-effect study, single 20 mg/kg dose, healthy subjects (Example 17); conditions: human, in vivo, po, 20 mg/kg, AUC0-12, cannabidiol, single 20 mg/kg oral, fasted; mean ± SD
Measurement Name: AUC(0-t) (ng·h/mL)

In [3]: df
Out[3]:
                  compound_structure_string  measurement_name  experimental_value
0  C=C(C)[C@@H]1CCC(C)=C[C@H]1c1c(O)cc(CCCCC)cc1O          AUC(0-t)                14.7

###

test: Pharmacokinetic food-effect study, single 20 mg/kg dose, healthy subjects (Example 17); conditions: human, in vivo, po, 20 mg/kg, AUC0-1.5, cannabidiol, single 20 mg/kg oral, fasted; mean ± SD
Measurement Name: AUC(0-t)

In [3]: df
Out[3]:
                  compound_structure_string  experimental_value
0  C=C(C)[C@@H]1CCC(C)=C[C@H]1c1c(O)cc(CCCCC)cc1O        2.79 ng·h/mL

###

assay: Pharmacokinetic food-effect study, single 20 mg/kg dose, healthy subjects (Example 17); settings: human, in vivo, po, 20 mg/kg, AUC0-2, cannabidiol, single 20 mg/kg oral, fed; mean ± SD
Measurement Name: AUC(0-t) (ng·h/mL)

>>> print(df.to_string())
                                   compound  measurement_name  experimental_value
0  C=C(C)[C@@H]1CCC(C)=C[C@H]1c1c(O)cc(CCCCC)cc1O [cannabidiol]          AUC(0-t)                 269
